Molecular target: furin, P09958;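 further: purified furin at 1:10 enzyme:substrate in 50 mM HEPES pH 7.5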
Sequence (P09958 whole entry): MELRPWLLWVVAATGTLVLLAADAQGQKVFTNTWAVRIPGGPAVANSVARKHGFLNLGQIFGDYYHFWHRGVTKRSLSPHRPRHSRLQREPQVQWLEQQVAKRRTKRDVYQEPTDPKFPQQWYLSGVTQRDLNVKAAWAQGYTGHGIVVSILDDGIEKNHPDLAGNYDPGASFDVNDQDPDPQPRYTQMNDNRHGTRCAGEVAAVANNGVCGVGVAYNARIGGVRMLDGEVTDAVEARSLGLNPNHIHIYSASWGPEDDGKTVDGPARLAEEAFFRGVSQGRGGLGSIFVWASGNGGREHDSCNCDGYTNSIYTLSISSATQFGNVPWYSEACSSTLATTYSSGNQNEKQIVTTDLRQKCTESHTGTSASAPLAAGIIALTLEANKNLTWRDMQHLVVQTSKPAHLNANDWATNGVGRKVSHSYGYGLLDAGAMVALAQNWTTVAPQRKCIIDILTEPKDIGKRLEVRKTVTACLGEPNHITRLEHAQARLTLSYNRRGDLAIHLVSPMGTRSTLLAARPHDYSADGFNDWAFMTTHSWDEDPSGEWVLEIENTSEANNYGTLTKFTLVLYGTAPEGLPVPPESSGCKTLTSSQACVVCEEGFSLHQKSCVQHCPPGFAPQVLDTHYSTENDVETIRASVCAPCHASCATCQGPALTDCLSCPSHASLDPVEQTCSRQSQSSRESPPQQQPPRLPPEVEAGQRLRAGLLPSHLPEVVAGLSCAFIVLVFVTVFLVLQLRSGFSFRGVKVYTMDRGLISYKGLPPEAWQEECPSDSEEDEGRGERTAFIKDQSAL
Assay: furin cleavage Z-score vs untreated control; higher = more cleavage, active = 3.5 or more, inactive = 1 or less, 8 variable residues between constant flanks
Settings: 7.5 min
The other results are listed elsewhere or left out. The hit rate among all sequences tested is not known here.
# valid calls are active, inactive; nothing else

Would you please look over these solved cases?
>>> assigned_category("CARSPRGVLRAGNASASA [FS-3089]")
"inactive"
>>> assigned_category("CAIMTCMSADAGNASASA [HC983]")
"inactive"
>>> assigned_category("CARKKRREEKAGNASASA [FS-1828]")
"inactive"
>>> assigned_category("CARKKREKKKAGNASASA [FS-2964]")
"inactive"

Problem: Record request — test call for CARKKRADKKAGNASASA [FS-2961]
Solution: active

Problem: Look up the recorded call for CARSPRSASTAGNASASA [FS-1932] in this test.
Solution: active
